# measurement target: HLA-DR DRB1*0101 (DR1) (Homo sapiens, UniProt P01903+P01911, A100R/D57E/F55L/F60I/F76Y/I96L/L162R/M171V/P40L/Q125E/R42F/V115G/Y59C)
# run description: biochemical
# Format: binding
# measurement conditions: DRB1 *0101
For each entry below, report its log10 of IC50 value.
Please note: log10 values; quantity IC50; unit nM.

Give the reported value of log10 of IC50 for this record: CC[C@H](C)[C@H](N)C(=O)N[C@@H](CCCCN)C(=O)N[C@@H](CCCCN)C(=O)N[C@@H](Cc1ccccc1)C(=O)N[C@@H](CC(C)C)C(=O)N[C@@H](Cc1ccc(O)cc1)C(=O)N[C@@H](CC(N)=O)C(=O)N[C@@H](Cc1ccccc1)C(=O)N[C@H](C(=O)N[C@@H](CCC(N)=O)C(=O)N[C@H](C(=O)N1CCC[C@H]1C(=O)N[C@@H](Cc1c[nH]cn1)C(=O)N[C@@H](CC(C)C)C(=O)N[C@@H](C)C(=O)O)[C@@H](C)CC)[C@@H](C)O
2.65

Report measured log10 of IC50; entry is CSCC[C@H](NC(=O)CNC(=O)CNC(=O)[C@H](CCCNC(=N)N)NC(=O)[C@@H](NC(=O)[C@H](CCC(N)=O)NC(=O)[C@H](C)NC(=O)[C@@H](NC(=O)[C@@H](NC(=O)[C@H](CC(C)C)NC(=O)[C@H](Cc1c[nH]cn1)NC(=O)[C@H](Cc1ccc(O)cc1)NC(=O)[C@H](CCCCN)NC(=O)[C@H](Cc1ccccc1)NC(=O)[C@@H](N)CCSC)[C@@H](C)O)C(C)C)C(C)C)C(=O)O
1.20

Identify measured log10 of IC50 associated with CC[C@H](C)[C@H](NC(=O)[C@H](CC(C)C)NC(=O)[C@H](CCCCN)NC(=O)[C@H](CCCCN)NC(=O)[C@@H](N)Cc1ccc(O)cc1)C(=O)N[C@@H](CCSC)C(=O)N[C@@H](Cc1ccc(O)cc1)C(=O)N[C@@H](CO)C(=O)N[C@@H](C)C(=O)N[C@@H](Cc1c[nH]cn1)C(=O)N[C@@H](CC(=O)O)C(=O)N[C@H](C(=O)N[C@H](C(=O)N[C@H](C(=O)N[C@@H](CO)C(=O)O)C(C)C)[C@@H](C)O)[C@@H](C)O
1.23

Provide only the value of recorded log10 of IC50 for CC[C@H](C)[C@H](NC(=O)[C@H](CO)NC(=O)[C@H](CO)NC(=O)[C@H](CC(=O)O)NC(=O)[C@H](C)NC(=O)[C@H](CC(N)=O)NC(=O)[C@@H](NC(=O)[C@H](Cc1ccc(O)cc1)NC(=O)[C@H](C)NC(=O)[C@@H](N)C(C)C)[C@@H](C)CC)C(=O)N[C@@H](CCC(=O)O)C(=O)NCC(=O)N[C@@H](CC(N)=O)C(=O)N[C@@H](Cc1ccc(O)cc1)C(=O)N[C@H](C(=O)O)[C@@H](C)O
3.67

Look up log10 of IC50 of CC(C)C[C@H](NC(=O)[C@H](CO)NC(=O)[C@H](CC(C)C)NC(=O)[C@H](CO)NC(=O)[C@H](C)NC(=O)[C@H](C)NC(=O)[C@H](CCCNC(=N)N)NC(=O)[C@H](C)NC(=O)[C@H](CC(C)C)NC(=O)[C@H](CC(C)C)NC(=O)[C@H](CC(C)C)NC(=O)[C@@H]1CCCN1C(=O)[C@H](C)NC(=O)[C@H](C)N)C(=O)NCC(=O)O and report it.
0.83

====

# measurement target: HLA-DR DRB1*0701 (DR7) (Homo sapiens, UniProt P01903+P01911, A100R/A102G/A103Q/D57E/D86V/E43K/F76Y/K127E/L162R/M171V/P40G/Q125H/Q99D/R33Q/R42Y/R54Q/S133A/S66F/T210M/V115G/Y107V/Y59L/Y89S)
# run description: biochemical
# Assay type: binding
# measurement conditions: DRB1 *0701
No end group written: not given here.
Kindly supply the reported IC50 values for the records listed here.
Your answer is read as µM, so omit the unit and give the number.

For KEDSHTAWTIVRVEI , write its IC50.
0.035

Output IC50 of HLKRYYGRILHYLKA
0.214

For the sequence LLYTFRKDMDKVETF , give its measured IC50 value.
53.4

Give reported IC50 value for RVIKNSIRLTL
2.24

Quickly give me recorded IC50 for REVYKFLFTDLRIVY
0.054

Given LFRVYSNFLRGKLKL , respond with its IC50.
0.0055

For the sequence DFAFADLTVVYREGN , give its reported IC50.
1.73

Could you please provide reported IC50 for QWVLTAAHCLKKNSQ ? Thanks!
3.4

Return the recorded IC50 value; entry: NGVLQGITSWGSEPC
0.485

State its IC50: LRTIQQLLMGTVNIV
0.513

Identify measured IC50 corresponding to LRMMNDQLMFLERAF
17.5

Give the value of IC50 reported for the following: NVNLQKQLLTNHLIN [NVNLQKQLLTNHLIN]
0.555

Note IC50 for the sequence shown: VLFLQMMNVNLQKQL
8.44

Give the measured IC50 for HPQWVLTAAHCLKKN
0.563

For the sequence YKSAHKGFKGVDAQGTLSKI , give its measured IC50 value.
0.108

Note down IC50 recorded for VEALYLVCGERGSFY
6.49

Query IC50 for HYLKAKEDSHTAWTI
0.801

Please report the measured IC50 for ALLIIPPKIHISIEL
0.0084

State its IC50: LWQLNGRLEYTLKDR
20.2

Quickly give me recorded IC50 for SKIMKLPKLPISNGK
83.7

Name the recorded IC50 of the sequence listed here: HLDMLRHLYQGCQVV
27

Provide IC50 value for the following sequence: FPDWQNYTPGPGTRF
59.6

Give IC50 for the following sequence: FENLVAENVKPPKVD
120

Name the recorded IC50 of the item YSYFPSIR in your answer.
7.22

Please give measured IC50 of the following entry: PRSLQCVSLHLLSND
2.22

Consider the sequence QTQKLLWQLNGRLEY . State its measured IC50.
3.1

Answer with reported IC50 of ILFLVKMNALRRLPV
0.056

# return recorded IC50 for entry RTAMFQDPQERPRKL
32.9

Answer with reported IC50 of NGVLQGITSWGPEPC
2.29

Specify measured IC50 for PEEFLRPRSLQCVSL .
5.16

Read off the recorded IC50 for TSITSLYQLENYTN
6.06

Return reported IC50. Input sequence: VEALYLVTGERGFFY
0.195

Fill in IC50 for record SNLELLRISLLLIQS
0.642

Return the recorded IC50 value; entry: GLALLSEAVLRGQAL [GLALLSEAVLRGQAL]
4.61

====

# measurement target: HLA-DR DRB1*0802 (DR8) (Homo sapiens, UniProt P01903+P01911, A100R/A103L/A169T/F76Y/H45Y/I96F/K41T/L162R/M171V/P40S/Q125H/Q178H/Q39Y/Q99D/R218S/R42G/S66Y/V115G/W38E)
# run description: biochemical
# Assay type: binding
Field: log10 of IC50. Provide a value for each of the molecules that follow.
Scale: decimal log of IC50, IC50 in nM.

Give the reported value of log10 of IC50 for this record: CC[C@H](C)[C@H](N)C(=O)N[C@@H](Cc1ccc(O)cc1)C(=O)N[C@@H](CO)C(=O)N[C@H](C(=O)N[C@@H](CO)C(=O)N[C@@H](CCSC)C(=O)N[C@@H](CCCCN)C(=O)N[C@@H](Cc1c[nH]cn1)C(=O)N1CCC[C@H]1C(=O)N[C@@H](CCC(N)=O)C(=O)N[C@@H](CCC(=O)O)C(=O)N[C@@H](CCSC)C(=O)N[C@@H](CCCCN)C(=O)N[C@H](C(=O)N[C@@H](Cc1ccc(O)cc1)C(=O)O)[C@@H](C)O)[C@@H](C)CC
3.13

For the molecule CC(C)C[C@H](NC(=O)[C@@H](NC(=O)[C@H](CCC(N)=O)NC(=O)[C@H](Cc1c[nH]c2ccccc12)NC(=O)[C@@H]1CCCN1C(=O)[C@H](CCC(N)=O)NC(=O)[C@@H](N)CO)C(C)C)C(=O)N[C@H](C(=O)N[C@@H](C)C(=O)N[C@@H](CO)C(=O)N[C@@H](CCCNC(=N)N)C(=O)NCC(=O)N[C@@H](CCCNC(=N)N)C(=O)N[C@@H](C)C(=O)N[C@H](C(=O)O)C(C)C)C(C)C , give its measured log10 of IC50 value.
2.59

// Input: CC[C@H](C)[C@H](NC(=O)[C@H](CCCCN)NC(=O)[C@H](CC(N)=O)NC(=O)[C@@H](NC(=O)[C@@H](NC(=O)[C@H](CC(C)C)NC(=O)[C@@H](NC(=O)[C@H](CO)NC(=O)[C@H](CC(C)C)NC(=O)[C@H](C)NC(=O)[C@H](CCC(=O)O)NC(=O)CN)[C@@H](C)O)C(C)C)C(C)C)C(=O)N[C@@H](CCCNC(=N)N)C(=O)NCC(=O)N[C@H](C(=O)O)[C@@H](C)O . Output its log10 of IC50 only.
2.58

For the molecule CSCC[C@H](NC(=O)[C@H](CCC(N)=O)NC(=O)[C@@H](NC(=O)[C@H](Cc1ccccc1)NC(=O)[C@H](C)NC(=O)[C@@H](NC(=O)CN)[C@@H](C)O)C(C)C)C(=O)N1CCC[C@H]1C(=O)N[C@@H](C)C(=O)N[C@@H](Cc1c[nH]cn1)C(=O)NCC(=O)N[C@@H](CC(C)C)C(=O)N[C@@H](Cc1ccccc1)C(=O)N1CCC[C@H]1C(=O)N[C@@H](Cc1c[nH]c2ccccc12)C(=O)O , report log10 of IC50.
2.00

Give the reported value of log10 of IC50 for this record: CC[C@H](C)[C@H](NC(=O)[C@H](CCC(=O)O)NC(=O)[C@@H](NC(=O)[C@H](Cc1ccc(O)cc1)NC(=O)[C@H](CCC(=O)O)NC(=O)[C@@H](N)CCC(=O)O)C(C)C)C(=O)N[C@@H](CCCNC(=N)N)C(=O)N[C@@H](CCC(N)=O)C(=O)N[C@H](C(=O)NCC(=O)N[C@@H](CC(=O)O)C(=O)N[C@@H](Cc1ccccc1)C(=O)N[C@@H](Cc1c[nH]cn1)C(=O)O)C(C)C
4.14

Indicate the recorded log10 of IC50 value for this molecule: CC[C@H](C)[C@H](NC(=O)[C@H](CO)NC(=O)[C@H](CO)NC(=O)[C@H](CC(=O)O)NC(=O)[C@H](C)NC(=O)[C@H](CC(N)=O)NC(=O)[C@@H](NC(=O)[C@H](Cc1ccc(O)cc1)NC(=O)[C@H](C)NC(=O)[C@@H](N)C(C)C)[C@@H](C)CC)C(=O)N[C@@H](CCC(=O)O)C(=O)NCC(=O)N[C@@H](CC(N)=O)C(=O)N[C@@H](Cc1ccc(O)cc1)C(=O)N[C@H](C(=O)O)[C@@H](C)O
5.03

Quote log10 of IC50 reported for CSCC[C@H](NC(=O)[C@H](CC(C)C)NC(=O)[C@@H]1CCCN1C(=O)[C@@H](NC(=O)[C@@H](N)CS)[C@@H](C)O)C(=O)N[C@@H](Cc1ccc(O)cc1)C(=O)N[C@@H](CO)C(=O)N[C@@H](CC(C)C)C(=O)N[C@H](C(=O)N[C@@H](Cc1c[nH]cn1)C(=O)N[C@@H](CC(N)=O)C(=O)N[C@@H](CC(C)C)C(=O)N[C@H](C(=O)N[C@@H](CCCCN)C(=O)N[C@@H](CCC(=O)O)C(=O)O)[C@@H](C)O)C(C)C please.
2.35

Specify log10 of IC50 for CC[C@H](C)[C@H](NC(=O)[C@H](Cc1c[nH]c2ccccc12)NC(=O)[C@@H](NC(=O)[C@@H](NC(=O)[C@H](CO)NC(=O)[C@H](CC(C)C)NC(=O)[C@@H](N)[C@@H](C)O)C(C)C)[C@@H](C)O)C(=O)NCC(=O)N[C@@H](C)C(=O)N[C@@H](C)C(=O)N1CCC[C@H]1C(=O)N[C@@H](CC(C)C)C(=O)N[C@H](C(=O)N[C@@H](CC(C)C)C(=O)N[C@@H](CO)C(=O)O)[C@@H](C)CC and stop.
2.92

Supply recorded log10 of IC50 for CSCC[C@H](NC(=O)[C@H](CC(C)C)NC(=O)[C@H](CCC(N)=O)NC(=O)[C@H](CC(=O)O)NC(=O)[C@H](CC(N)=O)NC(=O)[C@H](CCSC)NC(=O)[C@H](CCSC)NC(=O)[C@H](CCCNC(=N)N)NC(=O)[C@H](CC(C)C)NC(=O)[C@@H](N)C(C)C)C(=O)N[C@@H](Cc1ccccc1)C(=O)N[C@@H](CC(C)C)C(=O)N[C@@H](CCC(=O)O)C(=O)N[C@@H](CCCNC(=N)N)C(=O)N[C@@H](C)C(=O)O here.
3.23
